molecular target: human OX2R (Homo sapiens (Human)); assay: IPOne (IP-1) assay in CHO cells expressing human OX2R; type: cell-based; details: CHO, percentage of mean max effect of a reference compound at 1 uM (100% activity by comparison to Orexin A), human OX2R; read-out: Emax (%)
Sequence (O43614 whole entry): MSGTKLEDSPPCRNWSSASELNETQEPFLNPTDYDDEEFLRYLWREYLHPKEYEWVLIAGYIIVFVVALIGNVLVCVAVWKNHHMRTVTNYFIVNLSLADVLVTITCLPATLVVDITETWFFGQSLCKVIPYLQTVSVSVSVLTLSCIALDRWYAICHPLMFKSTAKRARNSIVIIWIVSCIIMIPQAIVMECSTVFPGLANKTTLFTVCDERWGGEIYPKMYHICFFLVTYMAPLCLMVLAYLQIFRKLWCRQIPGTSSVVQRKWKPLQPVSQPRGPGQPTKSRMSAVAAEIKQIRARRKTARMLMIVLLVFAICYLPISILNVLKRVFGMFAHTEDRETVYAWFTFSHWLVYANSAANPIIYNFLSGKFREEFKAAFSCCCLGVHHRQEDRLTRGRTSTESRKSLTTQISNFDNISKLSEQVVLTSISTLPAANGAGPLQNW
QUANTITY KIND: Emax (%)

>  <MOLECULE>
C[C@@H]1C[C@H](NS(C)(=O)=O)[C@H](CO[C@H]2CC[C@@]3(c4ncc(F)cn4)C[C@H]3C2)N1C(=O)OCC(F)C1CCC1 (stereo partly drawn)

>  <Emax (%)>
104

$$$$
>  <MOLECULE>
COC(=O)N1[C@H](C(F)F)C[C@H](NS(=O)(=O)CF)[C@@H]1CO[C@H]1CC[C@@]2(c3ncc(Cl)cn3)C[C@H]2C1 (single isomer, unassigned)

>  <Emax (%)>
103

$$$$
>  <MOLECULE>
CC(C)OC(=O)N1[C@H](C)C[C@H](NS(=O)(=O)N(C)C)[C@@H]1COC1CCC2(c3ncc(F)cn3)CC2C1 (stereo partly drawn)

>  <Emax (%)>
100

$$$$
>  <MOLECULE>
C[C@@H]1C[C@H](NS(C)(=O)=O)[C@H](CO[C@H]2CC[C@@]3(c4ncc(F)cn4)C[C@H]3C2)N1C(=O)OCCC(F)F

>  <Emax (%)>
102

$$$$
>  <MOLECULE>
COC(=O)N1[C@H](C)C[C@H](NS(=O)(=O)C(F)F)[C@@H]1COC1CCC2(c3ncccn3)CC2C1 (mixture of isomers)

>  <Emax (%)>
101

$$$$
>  <MOLECULE>
CC(C)OC(=O)N1[C@H](C)C[C@H](NS(=O)(=O)CF)[C@@H]1CO[C@@H]1CC[C@]2(c3ncc(Br)cn3)C[C@@H]2C1 (single isomer, unassigned)

>  <Emax (%)>
102

$$$$

---

molecular target: human OX2R (Homo sapiens (Human)); assay: IPOne (IP-1) assay in CHO cells expressing human OX2R; format: cell-based; details: CHO, percentage of mean max effect of a reference compound at 1 uM (100% activity by comparison to Orexin A), human OX2R; read-out: Emax (%)
QUANTITY KIND: Emax (%)

>  <MOLECULE>
CC(C)OC(=O)N1[C@H](C)C[C@H](NS(=O)(=O)CF)[C@@H]1CO[C@H]1CC[C@@]2(c3ncc(Br)cn3)C[C@H]2C1 (single isomer, unassigned)

>  <Emax (%)>
101

$$$$
>  <MOLECULE>
COC(=O)N1[C@H](C)C[C@H](NS(C)(=O)=O)[C@@H]1CO[C@@H]1CC[C@]2(c3ncc(F)cn3)C[C@@H]2C1

>  <Emax (%)>
101

$$$$
>  <MOLECULE>
COC(=O)N1[C@H](C)C[C@H](NS(=O)(=O)N2CCC2)[C@@H]1CO[C@H]1CC[C@@]2(c3ncc(F)cn3)C[C@H]2C1

>  <Emax (%)>
103

$$$$
>  <MOLECULE>
COC(=O)N1[C@H](C)C[C@H](NS(=O)(=O)N(C)C)[C@@H]1COC1CCC2(c3cnccn3)CC2C1 (stereo partly drawn) [Example 10]

>  <Emax (%)>
85.6

$$$$
>  <MOLECULE>
COC(=O)N1[C@H](C)C[C@H](NS(C)(=O)=O)[C@@H]1COC1CCC2(c3ncccn3)CC2C1 (single isomer, unassigned) [Example 183]

>  <Emax (%)>
89.7

$$$$
>  <MOLECULE>
CC(OC(=O)N1[C@H](C)C[C@H](NS(C)(=O)=O)[C@@H]1CO[C@H]1CC[C@@]2(c3ncc(F)cn3)C[C@H]2C1)C(F)F (stereo partly drawn)

>  <Emax (%)>
104

$$$$
